melting point values by entry

{"molecule": "O=C(C=Cc1ccc(O)c([N+](=O)[O-])c1)NC1CCc2ccccc21 (centres undefined)", "melting point": "203 to 205 °C"}
{"molecule": "CC12CCC3c4ccc(C(=O)O)cc4CCC3C1CCC2C(=O)Cc1ccccc1 (centres undefined)", "melting point": "146 to 150 °C"}
{"molecule": "OCc1cccc(-c2ccc3nc(-c4ccc(Cl)cc4)cn3c2)c1", "melting point": "181 to 182 °C"}

In the following, a different molecule is considered.
Query: Report melting point for COC(=O)C(c1ccccc1)C1CCN(c2ccc(NC(=O)c3ccccc3-c3ccc(C(F)(F)F)cc3)cc2)CC1 (centres undefined) please.
Reply: 151 °C

src = a melting point compilation (Tetko et al.; mined from patent text by program, amines drawn as free bases though some values may be those of a salt)
